# Test system: TK-10 renal
# test method notes: NCI tumour cell line growth inhibition, 48 h

compound: O=C(N/N=C\c1cc(Cl)ccc1O)c1ccncc1
TGI: > 100 µM

compound: COc1ccc(COC(=O)NNC(=O)C2CSC(c3ccccc3)N2C(C)=O)cc1 (stereo unspecified)
TGI: > 100 µM

compound: COc1nc(C(=O)O)c(Cl)c(OC)c1Cl
TGI: > 100 µM

compound: CCN1CC2(COC)C(O)CC(OC)C34C5CC6(O)C(OC)C=C(C5C6OC(=O)c5ccc(OC)c(OC)c5)C(C(OC)C23)C14 (stereo unspecified)
TGI: > 7.5 µM

compound: CN(C)c1ccc(/C=C2\N=C(N/N=C/c3ccc(N(C)C)cc3)NC2=O)cc1
TGI: > 100 µM

compound: O=P(Nc1ccccc1)(Oc1ccccc1)N1CCN(c2ccccc2)CC1 (stereo unspecified)
TGI: 52.2 µM
